# assay_system: UniProt P37288
# procedure_details: Human vasopression V1a receptor binding assay
# Set-up: host or cells: CHO cells (hV1a cell line), whole adherent cells
# assay_conditions: hV1a cell line (CHO), 1 nM 3H-AVP; Table 17; read-out: V1a Binding Affinity (IC50 (nM))
endpoint_label: IC50 (nM)

Cc1ccc(CNC(=O)[C@H](CCC(=O)N2CCN(C3CCCCC3)CC2)N2C(=O)[C@@H](N3C(=O)OC[C@@H]3c3ccccc3)[C@H]2/C=C/c2ccccc2)o1    0.95
O=C([C@@H](COCc1ccccc1)N1C(=O)[C@@H](N2C(=O)OC[C@@H]2c2ccccc2)[C@H]1/C=C/c1ccccc1)N1CCC(N2CCCCC2)CC1    1.37
O=C(NCc1cccc(C(F)(F)F)c1)[C@H](CCC(=O)N1CCN(C2CCCCC2)CC1)N1C(=O)[C@@H](N2C(=O)OC[C@@H]2c2ccccc2)[C@H]1CCc1ccccc1    1.68
O=C([C@@H](COCc1ccccc1)N1C(=O)[C@@H](N2C(=O)OC[C@@H]2c2ccccc2)[C@H]1/C=C/c1ccccc1)N1CCC(CCN2CCCCC2)CC1    0.56
CC(C)(NC(=O)[C@@H](CC(=O)N1CCC(N2CCCCC2)CC1)N1C(=O)[C@@H](N2C(=O)OC[C@@H]2c2ccccc2)[C@H]1/C=C/c1ccccc1)c1ccccc1 [Example 134J]    5.29
Cc1cccc(CNC(=O)[C@H](CCC(=O)N2CCN(C3CCCCC3)CC2)N2C(=O)[C@@H](N3C(=O)OC[C@@H]3c3ccccc3)[C@H]2/C=C/c2ccccc2)c1    1.17
O=C(NCc1cc(F)cc(C(F)(F)F)c1)[C@H](CCC(=O)N1CCN(C2CCCCC2)CC1)N1C(=O)[C@@H](N2C(=O)OC[C@@H]2c2ccccc2)[C@H]1/C=C/c1ccccc1    0.81
CN(Cc1cccc(C(F)(F)F)c1)C(=O)[C@@H](CC(=O)N1CCC(N2CCCCC2)CC1)N1C(=O)[C@@H](N2C(=O)OC[C@@H]2c2ccccc2)[C@H]1/C=C/c1ccccc1    1.08
O=C(NCc1cccs1)[C@H](CCC(=O)N1CCN(C2CCCCC2)CC1)N1C(=O)[C@@H](N2C(=O)OC[C@@H]2c2ccccc2)[C@H]1/C=C/c1ccccc1    0.78

----------
# assay_system: V1a (Homo sapiens, UniProt P37288)
# Sequence (P37288 whole entry): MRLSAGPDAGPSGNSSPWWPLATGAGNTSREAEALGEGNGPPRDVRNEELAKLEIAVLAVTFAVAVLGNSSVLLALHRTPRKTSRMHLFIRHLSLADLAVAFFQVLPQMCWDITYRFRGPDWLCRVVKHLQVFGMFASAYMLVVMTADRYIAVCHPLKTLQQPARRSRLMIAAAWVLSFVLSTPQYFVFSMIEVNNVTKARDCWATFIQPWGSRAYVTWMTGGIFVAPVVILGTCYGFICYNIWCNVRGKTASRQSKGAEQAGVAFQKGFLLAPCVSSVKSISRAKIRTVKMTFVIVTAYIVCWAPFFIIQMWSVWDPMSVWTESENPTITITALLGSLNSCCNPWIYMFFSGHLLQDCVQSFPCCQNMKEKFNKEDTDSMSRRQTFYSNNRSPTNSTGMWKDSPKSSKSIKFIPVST
# procedure_details: Human vasopression V1a receptor binding assay
# Set-up: host or cells: CHO cells (hV1a cell line), whole adherent cells
# assay_conditions: hV1a cell line (CHO), 1 nM 3H-AVP; Table 17; read-out: V1a Binding Affinity (IC50 (nM))
endpoint_label: IC50

O=C(NCCc1ccccc1)[C@H](CCC(=O)N1CCN(C2CCCCC2)CC1)N1C(=O)[C@@H](N2C(=O)OC[C@@H]2c2ccccc2)[C@H]1/C=C/c1ccccc1 [Example 200]    5.08 nM
CCN1CCN(C(=O)CC[C@@H](C(=O)NCc2cccc(C(F)(F)F)c2)N2C(=O)[C@@H](N3C(=O)OC[C@@H]3c3ccccc3)[C@H]2/C=C/c2ccccc2)CC1 [Example 221AC]    < 10 nM
Cc1ccccc1CNC(=O)[C@H](CCC(=O)N1CCN(C2CCCCC2)CC1)N1C(=O)[C@@H](N2C(=O)OC[C@@H]2c2ccccc2)[C@H]1/C=C/c1ccccc1 [Example 192]    < 10 nM
O=C(NCc1ccc(F)c(Cl)c1)[C@H](CCC(=O)N1CCN(C2CCCCC2)CC1)N1C(=O)[C@@H](N2C(=O)OC[C@@H]2c2ccccc2)[C@H]1/C=C/c1ccccc1 [Example 186]    < 10 nM
O=C(NC1(c2ccc(Cl)cc2)CCCC1)[C@H](CCC(=O)N1CCN(C2CCCCC2)CC1)N1C(=O)[C@@H](N2C(=O)OC[C@@H]2c2ccccc2)[C@H]1/C=C/c1ccccc1 [Example 221AQ]    ~50 nM
